Assay Notes: Volume of distribution at steady state in rat
Type: ADME, organism-based
Condition: in vivo, read-out: Vdss
Value Kind: Vd (L/kg)
The response must be a number in L/kg with no trailing unit.

Example compounds with recorded Vd:
Compound | Unit Descriptor | Vd
CNCC[C@H](Oc1cccc2ccccc12)c1cccs1 | L/kg | 20.9
CC(C)(C)CCC1(C(=O)c2cc(F)c3[nH]ccc3c2)CCNC1 (single isomer, unassigned; (+)) | L/kg | 14

Proceed to the following item.
# return recorded Vd for input CC(C)(C)CCC1(C(=O)c2ccc(Cl)c(Cl)c2)CCNC1 (single isomer, unassigned; (+))
14.3
